meta.source: patent US5635520A

- Test Name: in vivo
- Set-up: species or system Male SD rats
- Condition Info: rat, plasma, Rectal, Oleaginous base (Witepsol W-35) with sodium oleate, 0.5 hr
Measurement Name: concentration at 0.5 h (ng/mL)
All answers are understood in ng/mL, so give the number only.

Quote concentration at 0.5 h reported for Cc1c(OCC(F)(F)F)ccnc1C[S+]([O-])c1nc2ccccc2[nH]1 (stereo not shown) please.
310

----------
- Test Name: in vivo
- Set-up: species or system Male SD rats
- Condition Info: rat, plasma, Rectal, Oleaginous base (Witepsol W-35) with sodium oleate, 2.0 hr
Measurement Name: concentration at 2 h (ng/mL)
Kindly provide the numeric value in ng/mL only, without the unit symbol.

Note concentration at 2 h for the compound shown: Cc1c(OCC(F)(F)F)ccnc1C[S+]([O-])c1nc2ccccc2[nH]1 (stereo not shown)
180
